The measured values listed here are drawn from ChEMBL document CHEMBL1154595.

experiment: Distribution coefficient, log D of the compound; assay type: physicochemical; settings: octanol/water
measured quantity: logD
Lab note: jot down the number only; don't add units.

Supply measured logD of NC(N)=N/N=C/c1ccc(Cl)c(Cl)c1 in your reply.
1.8

###

test: Dissociation constant, pKa of the compound; type: physicochemical
measured quantity: pKa
Lab note: record just the number, no unit beside it.

# return recorded pKa for entry NC(N)=N/N=C/c1ccc(Cl)c(Cl)c1
8.4

###

assay: Half life in Sprague-Dawley rat; type: ADME, organism-based; conditions: in vivo
measured quantity: half-life (h)
Respond numerically; units are h and should not be typed.

Specify measured half-life for NC(N)=N/N=C/c1ccc(Cl)c(Cl)c1 .
2.5
